- assay_summary: qHTS assay to test for compound auto fluorescence at 590 nm (red) in HEK293 cells (AID 720679); further: on the % scale 0 is the no-effect control and ±100 the full control effect
- cond: red autofluorescence 540/590 nm; series mostly up to 91.3 µM
Activity calls are given as the source filed them. The call rests on the fitted dose curve; in most records, active means well fitted curve in the direction sought with a large enough effect in the repeat runs; inconclusive means weak or mixed curves; inactive means flat fitted curve, though single readings scatter.
value_type: fluorescence, % of fluorescent control

Examples with their reported fluorescence, % of fluorescent control follow.
| molecule | fluorescence, % of fluorescent control |
| --- | --- |
| CCN[C@@H](C)Cc1ccccc1 | inactive |
| C/C(=N\NC(=O)Nc1cc(F)cc(F)c1)c1ncccc1C(=O)O | inactive |
| CCCC(C)C1(CC)C(=O)N=C(S)NC1=O (configuration not stated) | inactive |
| O=C/C=C/c1ccco1 | inactive |
| NNC(N)=O | inactive |

Endpoint output: fluorescence, % of fluorescent control of C=CC1(C)OC(=O)N(c2cc(Cl)cc(Cl)c2)C1=O (configuration not stated) . Value?
inactive

Also N#CN , if possible.
inactive

Cool, now CCOC(=O)NC(C)(C)Cc1ccc(Cl)cc1
inactive

Lookup CC(C)[C@]12CC(=O)[C@H](C)[C@H]1C2
inactive

Cool, now CCCCCCC(=O)CCCCCC/C=C/C[C@@H](O)[C@H](O)[C@@](N)(CO)C(=O)O
inactive

Same thing, different molecule: NCCOS(=O)(=O)O
inactive

Same again, this time with CC(=O)OCC1=C(C(=O)O)N2C(=O)[C@@H](N)[C@H]2SC1
0.0847% [at 18.6 µM] (inactive)

Same lookup for CN(C)C1CCCCC1 , please.
inactive

Do the same for CC(C)(N)Cc1ccc(Cl)cc1 please
inactive

Field entry: Cc1ccc(Cl)c(O)c1
inactive

Now consider O=C(NC(O)C(Cl)(Cl)Cl)NC(O)C(Cl)(Cl)Cl (configuration not stated) .
inactive
